Biological target: Interleukin-8 receptors, CXCR1/CXCR2 (Homo sapiens) (UniProt P25025+P25024)
Test: Inhibition of GROalpha interaction with CXCR1/CXCR2 in human PMN leukocytes assessed as reduction in leukocyte migration after 5 days in presence of Diff-Quick staining by matrigel based microscopic analysis
Assay type: cell-based
Details: concentration not given here

| Given smiles | inhibition [%] |
| --- | --- |
| C[C@@H](C(=O)NCCCN1CCCC1)c1ccc(OS(=O)(=O)C(F)(F)F)cc1 | 0 |
| Cc1cc(CC(C)C)ccc1CC(=O)NS(C)(=O)=O | 0 |
| C[C@@H](C(=O)NCCN1CCCC1)c1ccc(OS(=O)(=O)C(F)(F)F)cc1 | 0 |
| CCC(=O)c1cccc(CC(=O)O)c1Cl | 27 |
